For each record, write down the corresponding pIC50.
- Tested on: HepG2
- RUN DESCRIPTION: cells
- Type: functional, cell-based
- STUDY CONDITIONS: Homo sapiens, HepG2, 48 h
- Description: Antiproliferative activity against human HepG2 cells assessed as inhibition of cell growth measured after 48 hrs by MTT assay
Give bare numbers, as −log10 of the molar value.

Sample answers from the record:
O=C(CCCCCCCOc1cccc(-c2nc3ccccc3[nH]2)c1)NO ... 5.32
O=C(CCCCCCOc1cccc(-c2nc3ccccc3[nH]2)c1)NO ... 5.41
O=C(CCCCCCOc1ccc(-c2nc3ccc(-c4nc5ccccc5[nH]4)cc3[nH]2)cc1)NO ... 4.96

// below: pIC50 requested for another molecule
Prompt line: GET pIC50 | system: HepG2 | item: O=C(CCCCCCCOc1cccc(-c2nc3ccc(-c4nc5ccccc5[nH]4)cc3[nH]2)c1)NO
Response line: 4.80

###

- System: PC-3
- RUN DESCRIPTION: cells
- Assay type: functional, cell-based
- STUDY CONDITIONS: Homo sapiens, PC-3, 48 h
- Description: Antiproliferative activity against human PC3 cells assessed as inhibition of cell growth measured after 48 hrs by MTT assay
PROPERTY LABEL: pIC50
Numbers only, as −log10 of the molar value.

Sample answers from the record:
O=C(CCCCCCCOc1cccc(-c2nc3ccc(-c4nc5ccccc5[nH]4)cc3[nH]2)c1)NO ... 5.16
O=C(CCCCCCOc1cccc(-c2nc3ccccc3[nH]2)c1)NO ... 5.57
O=C(CCCCCCOc1ccc(-c2nc3ccc(-c4nc5ccccc5[nH]4)cc3[nH]2)cc1)NO ... 5.36

// below: pIC50 requested for another compound
Prompt line: GET pIC50 | system: PC-3 | item: O=C(CCCCCCCOc1cccc(-c2nc3ccccc3[nH]2)c1)NO
Response line: 5.10

###

- TESTED SYSTEM: Histone deacetylase 2 (Homo sapiens)
- Sequence (Q92769 whole entry): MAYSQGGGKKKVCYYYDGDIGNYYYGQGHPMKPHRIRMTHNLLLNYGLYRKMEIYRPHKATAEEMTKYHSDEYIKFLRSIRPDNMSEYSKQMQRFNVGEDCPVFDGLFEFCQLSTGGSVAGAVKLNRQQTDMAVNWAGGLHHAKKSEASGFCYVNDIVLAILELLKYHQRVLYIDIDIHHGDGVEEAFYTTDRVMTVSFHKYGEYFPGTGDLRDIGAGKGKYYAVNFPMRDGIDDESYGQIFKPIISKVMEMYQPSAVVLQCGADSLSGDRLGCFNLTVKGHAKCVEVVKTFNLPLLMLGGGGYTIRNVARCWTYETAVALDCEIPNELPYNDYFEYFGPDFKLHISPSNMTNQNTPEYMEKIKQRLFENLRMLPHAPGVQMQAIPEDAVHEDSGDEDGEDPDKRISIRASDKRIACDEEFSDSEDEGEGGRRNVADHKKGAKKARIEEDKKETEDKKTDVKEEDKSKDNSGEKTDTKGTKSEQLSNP
PROPERTY LABEL: IC50 (nM)
Give bare numbers, in nM.

Prompt line: Give IC50 for O=C(CCCCCCOc1ccc(-c2nc3ccc(-c4nc5ccccc5[nH]4)cc3[nH]2)cc1)NO
Response line: 32

###

Measured pIC50 (Histone deacetylase 1 (Homo sapiens))
One number for each entry, as −log10 of the molar value.

Sample answers from the record:
O=C(CCCCCCOc1cccc(-c2nc3ccccc3[nH]2)c1)NO ... 7.62
O=C(CCCCCCCOc1cccc(-c2nc3ccc(-c4nc5ccccc5[nH]4)cc3[nH]2)c1)NO ... 7.33

// below: pIC50 requested for another molecule
Prompt line: Give pIC50 for O=C(CCCCCCOc1ccc(-c2nc3ccc(-c4nc5ccccc5[nH]4)cc3[nH]2)cc1)NO
Response line: 7.51

###

For each record, write down the corresponding IC50.
- TESTED SYSTEM: Histone deacetylase
- RUN DESCRIPTION: Inhibition of HDAC in human HeLa nuclear extract using fluorogenic substrate incubated for 30 mins by fluorescence based assay
- Format: cell-based

Please state, for each entry, its recorded IC50.
1. O=C(COc1cccc(-c2nc3ccccc3[nH]2)c1)NO
2. O=C(COc1ccc(-c2nc3ccc(-c4nc5ccccc5[nH]4)cc3[nH]2)cc1)NO
3. O=C(CCCOc1ccc(-c2nc3ccc(-c4nc5ccccc5[nH]4)cc3[nH]2)cc1)NO
4. O=C(COc1cccc(-c2nc3ccc(-c4nc5ccccc5[nH]4)cc3[nH]2)c1)NO

Response line:
1: > 1000 nM; 2: > 1000 nM; 3: > 1000 nM; 4: > 1000 nM
